Target: UniProt P51449
Assay: Inverse agonist activity at APC-labeled RORgammat LBD (unknown origin) assessed as inhibition of N-(2-chloro-6-fluorobenzyl)-N-((20-methoxy-[1,10-biphenyl]-4-yl)methyl)benzenesulfonamide -induced co-activator europium-labeled SRC1 peptide recruitment after 1 hr by LANCE-FRET assay
Conditions: read-out: IC50
Metric: pIC50
Remember the convention: pIC50 equals -log10 of concentration in molar.

## Task Give me measured pIC50, please, for this compound: `CCS(=O)(=O)c1ccc(CNC(=O)c2ccc3c(c2)c2ccccc2n3C)cc1`
## Result 6.25

## Task Complete the entry with pIC50 for `CCS(=O)(=O)c1ccc(CNC(=O)c2ccc3[nH]c4ccccc4c3c2)cc1`
## Result 5.27

## Task Given `CCn1ccc2cc(C(=O)NCc3ccc(S(=O)(=O)CC)cc3)ccc21` , respond with its pIC50.
## Result 5.29

## Task Give reported pIC50 value for `CCS(=O)(=O)c1ccc(CNC(=O)c2ccc3c(c2)c2ccccc2n3CC2CCC2)cc1`
## Result 7.26

## Task Specify pIC50 for `CCn1c2ccccc2c2cc(C(=O)NCc3ccc(S(=O)(=O)CC)cn3)ccc21` and stop.
## Result 5.91

## Task Fill in pIC50 for record `CCn1c2ccccc2c2cc(NC(=O)CNC(=O)Cc3ccc(S(=O)(=O)CC)cc3)ccc21`
## Result 5.12

## Task Please list pIC50 recorded for the compound `CCCS(=O)(=O)c1ccc(CNC(=O)c2ccc3c(c2)c2ccccc2n3CC)cc1`
## Result 5.84

## Task Supply recorded pIC50 for `CCn1c2ccc(C(=O)NCc3ccc(S(=O)(=O)CC)cc3)cc2c2ncccc21` here.
## Result 5.52

## Task // Input: `CCn1c2ccccc2c2cc(C(=O)NCc3ccc(S(C)(=O)=O)cc3)ccc21` . Output its pIC50 only.
## Result 5.96

## Task State its pIC50: `CCn1c2ccc(Cl)cc2c2cc(C(=O)NCc3ccc(S(=O)(=O)CC)cc3)ccc21`
## Result 7.23

## Task Provide one value: measured pIC50 of `CCn1c2ccc(C)cc2c2cc(C(=O)NCc3ccc(S(=O)(=O)CC)cc3)ccc21`
## Result 7.32

## Task Respond only with pIC50 recorded for `CCS(=O)(=O)c1ccc(CNC(=O)c2ccc3c(c2)c2ccccc2n3CC2CCCCC2)cc1`
## Result 7.47

## Task Provide pIC50 value for the following compound: `CCCn1c2ccccc2c2cc(C(=O)NCc3ccc(S(=O)(=O)CC)cc3)ccc21`
## Result 6.86

## Task Provide only the value of recorded pIC50 for `CCS(=O)(=O)c1ccc(CNC(=O)c2ccc3c(c2)c2ccccc2n3C(C)C)cc1`
## Result 6.45

---

Please provide measured pIC50 for the entries that follow.
Target: Nuclear receptor ROR-gamma (Homo sapiens, UniProt P51449)
Sequence (P51449 whole entry, the tested form may be a part): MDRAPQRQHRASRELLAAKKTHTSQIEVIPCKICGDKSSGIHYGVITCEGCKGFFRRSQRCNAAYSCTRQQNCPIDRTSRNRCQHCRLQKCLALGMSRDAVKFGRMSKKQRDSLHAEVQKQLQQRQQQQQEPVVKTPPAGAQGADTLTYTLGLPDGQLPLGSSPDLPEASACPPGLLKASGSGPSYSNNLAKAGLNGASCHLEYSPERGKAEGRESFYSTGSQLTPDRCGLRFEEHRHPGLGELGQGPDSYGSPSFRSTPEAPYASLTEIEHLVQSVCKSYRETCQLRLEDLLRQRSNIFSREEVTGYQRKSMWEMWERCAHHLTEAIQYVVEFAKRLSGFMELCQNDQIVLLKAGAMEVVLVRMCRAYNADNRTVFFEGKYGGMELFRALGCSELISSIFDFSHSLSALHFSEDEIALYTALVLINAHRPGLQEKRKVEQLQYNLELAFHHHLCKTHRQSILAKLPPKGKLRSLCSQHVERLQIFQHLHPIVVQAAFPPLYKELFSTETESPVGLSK
Experiment: Inverse agonist activity at APC-labeled RORgammat LBD (unknown origin) assessed as inhibition of N-(2-chloro-6-fluorobenzyl)-N-((20-methoxy-[1,10-biphenyl]-4-yl)methyl)benzenesulfonamide -induced co-activator europium-labeled SRC1 peptide recruitment after 1 hr by LANCE-FRET assay
Conditions: read-out: IC50
# pIC50 is unitless: minus log10 of the molar concentration; print number only

## Task Specify pIC50 for `CCn1c2ccccc2c2cc(NC(=O)Cc3ccc(S(=O)(=O)CC)cc3)ccc21` and stop.
## Result 6.77

## Task Indicate its recorded pIC50; the molecule in question is `CCn1c2c(c3cc(C(=O)NCc4ccc(S(=O)(=O)CC)cc4)ccc31)CCC2`
## Result 5.88

## Task Provide one value: measured pIC50 of `CCn1c2ccccc2c2cc(C(=O)NCc3ccc(S(=O)(=O)CC)cc3)ccc21`
## Result 6.78

## Task Item `CCS(=O)(=O)c1ccc(CNC(=O)c2ccc3c(c2)c2ccccc2n3CC2CC2)cc1` : provide pIC50
## Result 7.09

## Task Specify reported pIC50 for the molecule shown: `CCS(=O)(=O)c1ccc(CNC(=O)c2ccc3c(c2)c2ccccc2n3CC(C)C)cc1`
## Result 7.16

## Task Provide pIC50 value for the following molecule: `CCn1c2ccccc2c2cc(NC(=O)NCc3ccc(S(=O)(=O)CC)cc3)ccc21`
## Result 4.79

## Task Determine from records and report pIC50 for `CCn1c2c(c3cc(C(=O)NCc4ccc(S(=O)(=O)CC)cc4)ccc31)CCCC2`
## Result 6.37

## Task Kindly indicate its recorded pIC50. Item: `CCn1c(C)c(C)c2cc(C(=O)NCc3ccc(S(=O)(=O)CC)cc3)ccc21`
## Result 6.04

## Task Using the record for `CCn1c2ccc(F)cc2c2cc(C(=O)NCc3ccc(S(=O)(=O)CC)cc3)ccc21` , state its measured pIC50.
## Result 6.81

## Task Quick one: give measured pIC50 for `CCn1c2ccccc2c2cc(C(=O)NCc3ccc(S(=O)(=O)NC)cc3)ccc21`
## Result 6.50

Values from ChEMBL document CHEMBL4196040
